Hey, just so you know, these numbers are from ChEMBL document CHEMBL1153928.

Study system: A disintegrin and metalloproteinase with thrombospondin motifs 5 (Homo sapiens)
Sequence (Q9UNA0 whole entry): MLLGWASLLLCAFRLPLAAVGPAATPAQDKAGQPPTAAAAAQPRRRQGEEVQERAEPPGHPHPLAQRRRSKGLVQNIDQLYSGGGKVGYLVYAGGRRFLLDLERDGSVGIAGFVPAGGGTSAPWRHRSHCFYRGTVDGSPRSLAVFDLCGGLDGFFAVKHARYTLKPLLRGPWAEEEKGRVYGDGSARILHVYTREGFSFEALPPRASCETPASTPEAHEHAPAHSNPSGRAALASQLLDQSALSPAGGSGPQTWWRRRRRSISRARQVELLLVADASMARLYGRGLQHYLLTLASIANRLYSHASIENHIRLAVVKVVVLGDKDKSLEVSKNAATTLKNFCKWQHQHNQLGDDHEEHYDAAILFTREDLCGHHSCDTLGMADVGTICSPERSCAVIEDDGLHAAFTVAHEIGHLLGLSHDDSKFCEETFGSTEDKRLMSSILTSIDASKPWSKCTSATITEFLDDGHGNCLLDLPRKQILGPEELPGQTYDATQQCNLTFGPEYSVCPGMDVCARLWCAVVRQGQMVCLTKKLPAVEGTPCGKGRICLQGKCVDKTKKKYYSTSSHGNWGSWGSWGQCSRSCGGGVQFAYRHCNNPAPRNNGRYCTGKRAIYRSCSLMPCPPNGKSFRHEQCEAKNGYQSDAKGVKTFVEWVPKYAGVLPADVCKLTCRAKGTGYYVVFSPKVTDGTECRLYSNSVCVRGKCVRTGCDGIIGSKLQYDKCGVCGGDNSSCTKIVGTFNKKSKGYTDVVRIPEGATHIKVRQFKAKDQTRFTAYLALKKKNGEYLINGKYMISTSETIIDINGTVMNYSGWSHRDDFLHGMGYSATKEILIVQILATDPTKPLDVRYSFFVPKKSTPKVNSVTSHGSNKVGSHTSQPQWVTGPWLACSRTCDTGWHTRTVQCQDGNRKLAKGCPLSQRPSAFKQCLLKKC
Test protocol: Inhibition of recombinant aggrecanase 2
Binary call on IC50 with cut-off 300 nM: strictly below means class 1, and equality or higher means class 0.

O=C1CCCN1CCN([C@]1(C(=O)O)C[C@H]1c1ccccc1)S(=O)(=O)N1CC=C(c2ccc(Cl)cc2)CC1 | class 0
O=C(O)[C@@]1(N(CCn2nccn2)S(=O)(=O)c2ccc(-c3ccc(Cl)cc3)cc2)C[C@H]1c1ccccc1 | class 1
O=C(O)[C@@]1(N(CCc2ccncc2)S(=O)(=O)c2ccc(-c3ccc(Cl)cc3)cc2)C[C@H]1c1ccccc1 | class 0
O=C(O)[C@@H](Cc1ccccc1)N(CCN1CCCC1=O)S(=O)(=O)c1ccc(-c2ccc(Cl)cc2)cc1 | class 0
O=C(O)[C@@]1(N(CCn2ccnc2)S(=O)(=O)c2ccc(-c3ccc(Cl)cc3)cc2)C[C@H]1c1ccccc1 | class 0

Identify whether the molecule O=C1CCCCN1CCN([C@]1(C(=O)O)C[C@H]1c1ccccc1)S(=O)(=O)c1ccc(-c2ccc(Cl)cc2)cc1 records IC50 below 300 nM. class 1

Identify whether the molecule CC(=O)Nc1ccc(-c2ccc(S(=O)(=O)N(CCN3CCCC3=O)[C@]3(C(=O)O)C[C@H]3c3ccccc3)cc2)cc1 records IC50 below 300 nM. class 0

Identify whether the molecule O=C(O)[C@@]1(N(CCn2cnc3ncncc32)S(=O)(=O)c2ccc(-c3ccc(Cl)cc3)cc2)C[C@H]1c1ccccc1 records IC50 below 300 nM. class 1

* * *

Study system: A disintegrin and metalloproteinase with thrombospondin motifs 5 (Homo sapiens, UniProt Q9UNA0)
Test protocol: Inhibition of recombinant aggrecanase 2
Quantity name: IC50 (µM)
Numbers only, in µM.

CN([C@H](Cc1ccccc1)C(=O)O)S(=O)(=O)c1ccc(-c2ccc(Cl)cc2)cc1 | 8

Give IC50 for each of the items listed below.
1. CN(C)c1ccc(-c2ccc(S(=O)(=O)N(CCN3CCCC3=O)[C@]3(C(=O)O)C[C@H]3c3ccccc3)cc2)cc1
2. O=C(O)[C@@]1(N(CCc2ccccn2)S(=O)(=O)c2ccc(-c3ccc(Cl)cc3)cc2)C[C@H]1c1ccccc1
3. O=C1CCCN1CCN([C@]1(C(=O)O)C[C@H]1c1ccccc1)S(=O)(=O)c1ccc(-c2ccc(Cl)cc2)cc1
4. O=C(O)[C@@]1(N(CCn2cnc3cncnc32)S(=O)(=O)c2ccc(-c3ccc(Cl)cc3)cc2)C[C@H]1c1ccccc1
5. O=C(O)[C@@]1(N(CCn2cnnc2)S(=O)(=O)c2ccc(-c3ccc(Cl)cc3)cc2)C[C@H]1c1ccccc1
6. O=C(O)[C@@]1(N(CCn2cnnn2)S(=O)(=O)c2ccc(-c3ccc(Cl)cc3)cc2)C[C@H]1c1ccccc1
7. O=C1CCC(=O)N1CCN([C@]1(C(=O)O)C[C@H]1c1ccccc1)S(=O)(=O)c1ccc(-c2ccc(Cl)cc2)cc1

[6.6, 0.82, 0.2, 0.17, 0.19, 0.27, 0.31]

* * *

Study system: UniProt:Q9UNA0
Test protocol: Inhibition of recombinant aggrecanase 2 at 10 uM
For each of the molecules below, state its inhibition.
Answers are plain numbers, in %.

Worked cases, answers included:
C[C@@](Cc1ccccc1)(C(=O)O)N(CCN1CCCC1=O)S(=O)(=O)c1ccc(-c2ccc(Cl)cc2)cc1 | 0.1
O=C1CCCN1CCN([C@]1(C(=O)O)C[C@H]1c1ccccc1)S(=O)(=O)c1ccc(-c2ccncc2)cc1 | 18
COCC#Cc1ccc(S(=O)(=O)N(CCN2CCCC2=O)[C@]2(C(=O)O)C[C@H]2c2ccccc2)cc1 | 2.9
O=C(O)[C@@H](Cc1ccccc1)N(CC1CC1)S(=O)(=O)c1ccc(-c2ccc(Cl)cc2)cc1 | 46
O=C1CCCN1CCN([C@]1(C(=O)O)C[C@H]1c1ccccc1)S(=O)(=O)c1ccc(C#CCO)cc1 | -1.5

Give inhibition for each of the items listed below.
1. O=C(O)[C@@H](Cc1ccccc1)N(Cc1ccccc1)S(=O)(=O)c1ccc(-c2ccc(Cl)cc2)cc1
2. CN([C@@H](Cc1ccccc1)C(=O)O)S(=O)(=O)c1ccc(-c2ccc(Cl)cc2)cc1
3. O=C(O)[C@@H](Cc1ccccc1)N(CC1CCCCC1)S(=O)(=O)c1ccc(-c2ccc(Cl)cc2)cc1

[30, -0.12, 22]
